Measured OD 450 nm, listed per entry.
Biological target: T1, Human hepcidin peptide (hepcidin-25) (human)
T1 construct: Synthetic 25 aa peptide; also called hep-25; Hep-25
T1 peptide: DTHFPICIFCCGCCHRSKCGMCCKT
Experiment: titration affinity ELISA, hepcidin 100 ng/well on Nunc Immobilizer Amino plate, CHO supernatant; antibody 1.56 ng/ml
Answer with a number only, understood to be in OD450.

The following binders have reported results that may help.
1) BAP070-01 (human-mouse chimeric MAb 583) (antibody, human IgG1, kappa, V domains shown, used as CHO cell supernatant; also called BAP070-1) VH: QIQLVQSGPELKKPGETVKISCKASGYTFTNYGMNWVKQAPGKGLKWMGWINTYTGEPTYADDFKGRFAFSLETSASTAYLQINNLKNEDTATYFCTTYATSWYWGQGTLVTVSS VL: DIVLTQSPASLAVSLGQRATISCRASESVDSYGNSFMHWYQQKPGQPPKLLIYRASNLESGIPARFSGSGSRTDFTLTINPVEADDVATYYCQQSNEDLTFGQGTKVEIKR    0.492
2) BAP070-hum03 (antibody, IgG1, V domains shown, Expressed as soluble IgG1 in CHO cells, tested as supernatant; The entries stop inside FR4) VH: QVQLVQSGAEVKKPGASVKVSCKASGYTFTNYGMNWVRQATGQGLEWMGWINTYTGEPTYADDFKGRFVFSLDTSVSTAYLQICSLKAEDTAVYYCTTYATSWYWGQG VL: AIQLTQSPSSLSASVGDRVTITCRASESVDSYGNSFMHWYQQKPGQAPRLLIYRASNLESGVPSRFSGSGSGTDFTFTISSLQPEDIATYYCQQSNEDLTFG    0.564
3) BAP070-hum04 (antibody, V domains shown, Expressed as soluble IgG1 in CHO cells, tested as supernatant; The entries stop inside FR4) VH: QVQLVQSGAEVKKPGASVKVSCKASGYTFTNYGMNWVRQARGQRLEWIGWINTYTGEPTYADDFKGRLTISKDTSKNQVVLTMTNMDPVDTATYYCTTYATSWYWGQG VL: AIQLTQSPSSLSASVGDRVTITCRASESVDSYGNSFMHWFQQRPGQSPRRLIYRASNLESGIPPRFSGSGYGTDFTLTINNIESEDAAYYFCQQSNEDLTFG    0.827
4) BAP070-hum05 (antibody, IgG1, V domains shown, Expressed as soluble IgG1 in CHO cells, tested as supernatant; The entries stop inside FR4) VH: EVQLVQSGAEVKKPGESLRISCKGSGYTFTNYGMNWIRQPPGKGLEWIGWINTYTGEPTYADDFKGRVTISADKSISTAYLQWSSLKASDTAMYYCTTYATSWYWGQG VL: DIQMTQSPSSLSASVGDRVTITCRASESVDSYGNSFMHWYQQKPGQAPRLLIYRASNLESGVPSRFSGSGSGTDFTFTISSLQPEDIATYYCQQSNEDLTFG    0.59
5) BAP070-hum01 (antibody, IgG1, V domains shown, Expressed as soluble IgG1 in CHO cells, tested as supernatant; The entries stop inside FR4 (...WGQG / ...FG); also called humanized hit 1) VH: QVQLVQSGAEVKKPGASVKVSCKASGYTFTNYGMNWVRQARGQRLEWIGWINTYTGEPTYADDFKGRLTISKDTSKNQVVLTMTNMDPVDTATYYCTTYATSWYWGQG VL: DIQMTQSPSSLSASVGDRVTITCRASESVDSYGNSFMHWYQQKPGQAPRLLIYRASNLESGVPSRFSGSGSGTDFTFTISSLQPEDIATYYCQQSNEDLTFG    0.827
6) BAP070-hum02 (antibody, IgG1, V domains shown, Expressed as soluble IgG1 in CHO cells, tested as supernatant; The entries stop inside FR4) VH: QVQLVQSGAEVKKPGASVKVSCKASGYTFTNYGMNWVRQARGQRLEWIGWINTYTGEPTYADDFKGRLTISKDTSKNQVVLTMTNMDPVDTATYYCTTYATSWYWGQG VL: AIQLTQSPSSLSASVGDRVTITCRASESVDSYGNSFMHWYQQKPGKAPKLLIYRASNLESGIPARFSGSGSGTEFTLTISSLQSEDFAVYYCQQSNEDLTFG    0.804

Kindly consider the entry below.
Please report the recorded OD 450 nm for BAP070-hum06 (antibody, IgG1, V domains shown, Expressed as soluble IgG1 in CHO cells, tested as supernatant; The entries stop inside FR4) VH: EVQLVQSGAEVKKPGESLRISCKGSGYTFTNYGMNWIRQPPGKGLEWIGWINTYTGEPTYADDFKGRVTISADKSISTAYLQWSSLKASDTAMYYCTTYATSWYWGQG VL: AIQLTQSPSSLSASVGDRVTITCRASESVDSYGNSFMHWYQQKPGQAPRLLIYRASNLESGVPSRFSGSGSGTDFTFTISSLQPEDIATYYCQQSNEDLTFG .
0.75
